# Target System: T1, NTH1 (endonuclease III) (Homo sapiens, UniProt P78549 1-304)
# T1 sequence: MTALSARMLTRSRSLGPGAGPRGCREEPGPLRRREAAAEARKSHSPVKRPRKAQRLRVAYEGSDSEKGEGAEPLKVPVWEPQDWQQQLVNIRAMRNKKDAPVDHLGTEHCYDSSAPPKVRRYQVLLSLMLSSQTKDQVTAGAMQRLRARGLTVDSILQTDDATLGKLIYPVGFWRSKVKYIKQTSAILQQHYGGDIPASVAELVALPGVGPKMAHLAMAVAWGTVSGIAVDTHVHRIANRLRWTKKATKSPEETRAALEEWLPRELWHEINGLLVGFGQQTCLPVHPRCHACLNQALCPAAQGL
# Test: MST; MST: 50 mM Tris-HCl pH 7.5, 50 mM KCl, 1 mM EDTA, 1 mM DTT, 7% glycerol, 25 C, 10 min, 0.5 uM DNA; authors call Kd values estimates only
# Protocol Conditions: protein: recombinant; G-quadruplex
Experimental Readout: pKd
Scale explanation: pKd corresponds to minus log10 of a concentration expressed in moles per litre.

Input: Quick check: pKd of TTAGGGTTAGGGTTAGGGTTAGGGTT (structured_DNA) [Q4] ?
Output: 5.60
